run description: in vivo
details: BALB/c, mouse, po, 10 mg/kg
quantity: half-life at 24 h (h)

[[record]]
mol = "CCN1CCN(Cc2ccc(Nc3ncc(F)c(-c4cc(F)c5nc(C)n(C(C)C)c5c4)n3)nc2)CC1"
observed_value = 4.71


* * *

Test system: SNU-5
run description: cells
details: Homo sapiens
quantity: IC50 (nM)

[[record]]
mol = "CCN1CCN(Cc2ccc(Nc3ncc(F)c(-c4cc(F)c5nc(C)n(C(C)C)c5c4)n3)nc2)CC1"
quantity = "IC50"
observed_value = 523


* * *

run description: in vitro
details: dog, microsomes
quantity: microsomal CLint at 1 h (µL/min/mg)

[[record]]
mol = "CCN1CCN(Cc2ccc(Nc3ncc(F)c(-c4cc(F)c5nc(C)n(C(C)C)c5c4)n3)nc2)CC1"
observed_value = 78

